- MEASUREMENT_NOTES: amyloid nucleation score (Sup35N fusion, yeast selection) (log enrichment); library NNK2; higher = more nucleation; inactive = no reads after selection;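 further: zero at mode of non-aggregating sequences after 7 days selection at 30°C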
Note to self: values exactly at 1 are criterion met. So amyloid nucleation score at or above 1 is criterion met, below is criterion not met.

Task: Is reported amyloid nucleation score greater than or equal to 1 here: `YSEMRDSQAVVAYESRVVKP`
Output: criterion not met

Task: Is reported amyloid nucleation score greater than or equal to 1 here: `PITLTRASALLCKYYAFWTF`
Output: criterion met

Task: Is reported amyloid nucleation score greater than or equal to 1 here: `GHVQSWGCVVLHEFSSISPE`
Output: criterion met

Task: Is reported amyloid nucleation score greater than or equal to 1 here: `MRGGLGV`
Output: criterion not met

Task: Is reported amyloid nucleation score greater than or equal to 1 here: `SSYGWVMLMEDFW`
Output: criterion not met

Task: Is reported amyloid nucleation score greater than or equal to 1 here: `SSWLYGVYSSYMWMLF`
Output: criterion not met

Task: Is reported amyloid nucleation score greater than or equal to 1 here: `LLFSSSSLPIGTGGYDLTAG`
Output: criterion not met

Task: Is reported amyloid nucleation score greater than or equal to 1 here: `DMMCLLFGAKFNVQTGTHS`
Output: criterion met

Task: Is reported amyloid nucleation score greater than or equal to 1 here: `KIIVHYIYRRIRLCDSNLKR`
Output: criterion met

Task: Is reported amyloid nucleation score greater than or equal to 1 here: `SHCCGFLRGGWNRAQFGYRT`
Output: criterion met

Task: Is reported amyloid nucleation score greater than or equal to 1 here: `VTLQPFCSARSWLEMNVKFF`
Output: criterion met

Task: Is reported amyloid nucleation score greater than or equal to 1 here: `NQALTTSPHSYIRFSCTCMF`
Output: criterion met

Task: Is reported amyloid nucleation score greater than or equal to 1 here: `VVLRVLISFSHSTIRLEGLV`
Output: criterion met

Task: Is reported amyloid nucleation score greater than or equal to 1 here: `TDLWSNYLSGNLVENFITCL`
Output: criterion not met

Task: Is reported amyloid nucleation score greater than or equal to 1 here: `VLGYPKTSTVHALPHTTMLP`
Output: criterion not met

---

- MEASUREMENT_NOTES: amyloid nucleation score (Sup35N fusion, yeast selection) (log enrichment); library NNK3; higher = more nucleation; inactive = no reads after selection

[
  {
    "SEQUENCE_CHAIN": "RSMNLRSKLMSACGGFMS",
    "amyloid nucleation score": "inactive"
  },
  {
    "SEQUENCE_CHAIN": "FDSFLWLTMNWIELIGNILV",
    "amyloid nucleation score": "inactive"
  },
  {
    "SEQUENCE_CHAIN": "WVCTVVLVKDLPPRRSVLVG",
    "amyloid nucleation score": "inactive"
  }
]

---

- MEASUREMENT_NOTES: amyloid nucleation score (Sup35N fusion, yeast selection) (log enrichment); library NNK1; higher = more nucleation; inactive = no reads after selection
Note to self: values exactly at 0.08 are met. So amyloid nucleation score at or above 0.08 is met, below is not met.

Task: Is reported amyloid nucleation score greater than or equal to 0.08 here: `LLLYLTLAIGSRLCRELPQR`
Output: met

Task: Is reported amyloid nucleation score greater than or equal to 0.08 here: `DFARQSSHPETWSSGDLSHS`
Output: met

Task: Is reported amyloid nucleation score greater than or equal to 0.08 here: `SHIRSWVRSAHAWYIWHGKT`
Output: met

Task: Is reported amyloid nucleation score greater than or equal to 0.08 here: `FVVVVGSHLGDGFCDCWVNC`
Output: met

Task: Is reported amyloid nucleation score greater than or equal to 0.08 here: `FCSDFKSEYSIWDYWVWHKV`
Output: not met

Task: Is reported amyloid nucleation score greater than or equal to 0.08 here: `YINLSYPIFTNSDLFGPCWH`
Output: met

Task: Is reported amyloid nucleation score greater than or equal to 0.08 here: `LHQSVMRWLAASWCPQIKLG`
Output: met

Task: Is reported amyloid nucleation score greater than or equal to 0.08 here: `VWRKTLRWPLGPWAGRS`
Output: not met

Task: Is reported amyloid nucleation score greater than or equal to 0.08 here: `RRICSNCLFSGGIWNISGWV`
Output: met

Task: Is reported amyloid nucleation score greater than or equal to 0.08 here: `FFLPILGPW`
Output: not met

Task: Is reported amyloid nucleation score greater than or equal to 0.08 here: `WRGISVQAVRRLCAKNKSSR`
Output: met

Task: Is reported amyloid nucleation score greater than or equal to 0.08 here: `RDMMMRRWVVSKSEL`
Output: met

Task: Is reported amyloid nucleation score greater than or equal to 0.08 here: `LRNSHNVGEQFCISVRDSLG`
Output: not met

Task: Is reported amyloid nucleation score greater than or equal to 0.08 here: `GMMHYRFLIFFWYTSRTAYW`
Output: not met

Task: Is reported amyloid nucleation score greater than or equal to 0.08 here: `RDIWMATYRWVRVYSLMWIG`
Output: met

Task: Is reported amyloid nucleation score greater than or equal to 0.08 here: `HFVILVLFMMMSSIGMVTRA`
Output: met

Task: Is reported amyloid nucleation score greater than or equal to 0.08 here: `NYFFAAACKKVVQGQPCSF`
Output: met

Task: Is reported amyloid nucleation score greater than or equal to 0.08 here: `TSWVEAPSVSSFGWFLSVHL`
Output: met

Task: Is reported amyloid nucleation score greater than or equal to 0.08 here: `NIEGRVYRIDSAGGPCIYVL`
Output: not met

Task: Is reported amyloid nucleation score greater than or equal to 0.08 here: `EQHCNAMGVSRSGPWCDGEV`
Output: not met

Task: Is reported amyloid nucleation score greater than or equal to 0.08 here: `GFVMKLLL`
Output: met
